# System: SK-MEL-5 melanoma
# assay.details: NCI-60 one-dose screen, 48 h
# condition.summary: 10 µM unless noted
This is part of a sample that, as a whole, favours compounds with a hit. Of some 83,000 tested, about 20% had one in any assay. Calls of active or inactive are those of the source. Rule for the calls: active = growth percent below 10; inactive = the rest.
Pick one: active, inactive

Solved cases (6 shown):
CCCCCCCCCCCCCCCCCCOc1ccccc1COP(=O)(O)OOCC[N+](C)(C)C: active
C#C[C@]1(OC(=O)CCCCCC)CC[C@H]2[C@@H]3CCC4=CC(=O)CC[C@@H]4[C@H]3CC[C@@]21C: inactive
CS(=O)(=O)CCN1CC2CCCC(C2)C1: inactive
CC(C)[C@]12O[C@H]1[C@@H]1O[C@]13[C@]1(O[C@H]1C[C@H]1c4c(C(=O)c5ccccc5)oc(OC(=O)c5ccccc5)c4CC[C@@]13C)[C@@H]2O: active
C/C(CC(C)(C)N1CC1)=N\NC(=O)Nc1cccc2ccccc12: inactive
CCC[CH2][Sn]([CH2]CCC)([CH2]CCC)[O]c1ccc(Cl)cc1Cl: active

Prompt line: For COC(=O)C1CCC(NC(=O)c2csc([C@@H](C[C@H](C(C)C)N(C)C(=O)[C@@H](NC(=O)[C@H]3CCCCN3C)C(C)C)OC(C)=O)n2)CC1 (stereo partly drawn) , what call appears in the results of this test?
Response line: active

Prompt line: # fetch the recorded call for CC[C@H](C)[C@H](NC(=O)[C@H]1CCCCN1C)C(=O)N(C)[C@H](CC(=O)c1nc(C(=O)N[C@@H](Cc2ccccc2)C[C@H](C)C(=O)O)cs1)C(C)C here
Response line: inactive

###

# System: HL-60(TB) leukemia
# assay.details: NCI-60 one-dose screen, 48 h (100 = growth as untreated, 0 = no growth, -100 = all killed)
# condition.summary: 10 µM unless noted
This is part of a sample that, as a whole, favours compounds with a hit. Of some 83,000 tested, about 20% had one in any assay.
Would you kindly list growth for each of these molecules?
One number for each entry, in %.

Take a look at these entries with their results.
CC(C)=CC1C(C(=O)OCc2cccc(Oc3ccccc3)c2)C1(C)C (stereo not given): 119
CC(C)COC(C[N+](=O)[O-])C(Cl)(Cl)Cl (stereo not given): 93
O=Cc1cn(Cc2ccc(Cl)cc2)c2ccccc12: 97.7

Would you mind listing growth for each of the following molecules?
1. CCOC(=O)[C@@H](C)C[C@H](Cc1ccccc1)NC(=O)c1csc([C@@H](C[C@H](C(C)C)N(C)C(=O)[C@@H](NC(=O)[C@H]2C[C@H](O)CCN2C)C(C)C)OC(C)=O)n1
2. COC(C(=O)[C@@H](O)[C@@H](C)O)[C@@H]1Cc2cc3cc(O[C@H]4C[C@@H](O[C@H]5C[C@@H](O)[C@H](O)C(C)O5)[C@H](O)C(C)O4)c(C)c(O)c3c(O)c2C(=O)[C@H]1O[C@H]1C[C@@H](O[C@H]2C[C@@H](O[C@H]3C[C@@H](O)[C@@H](O)C(C)O3)[C@@H](O)C(C)O2)[C@H](O)C(C)O1 (stereo not given in full)
3. CCOC(=O)[C@@H](C)C[C@H](Cc1ccccc1)NC(=O)c1csc([C@@H](C[C@H](C(C)C)N(C)C(=O)CNC(=O)[C@H]2CCCCN2C)OC(C)=O)n1
4. Clc1cccc(Cl)c1Cl
5. N#C[Se]Cc1cc(-c2ccccc2)n(-c2ccc(S(N)(=O)=O)cc2)n1
6. CC(=O)OC1CCC2(C)C(CCC3C2CC(=O)C2(C)C3CC(Sc3ccc(N(CCCl)CCCl)cc3)C2C(C)=O)C1 (stereo not given)

Response line:
1. -27.1
2. 30.5
3. -32.3
4. 99.6
5. -44.5
6. 79.3

Provide the reported growth of each entry below, same order.
1. COC(=O)[C@@H](C)C[C@H](Cc1ccccc1)NC(=O)c1csc([C@@H](C[C@H](C(C)C)N(C)C(=O)[C@H](C)NC(=O)[C@H]2CCCCN2C)OC(C)=O)n1
2. CC[C@H](C)[C@H](NC(=O)[C@H]1CCCCN1C)C(=O)N(C)[C@H](C[C@@H](O)c1nc(C(=O)N[C@@H](Cc2ccccc2)C[C@H](C)C(=O)O)cs1)C(C)C
3. COc1ccc(/C=C/c2cc(OC)c(OC)c(OC)c2)cc1NC(=O)/C=C/c1ccc(F)cc1

Response line:
[-19.6, 8.99, -20]
